B1: EHEE_rd4_0086 (parent)
chain: EIHIRTNGEEQARKVYKMLAKRNYDVKIEQHNGQWVVTAS

Variants of: B1
Run description: folding stability dG (cDNA display proteolysis); higher = more stable
Recorded conditions: PBS, room temperature
Attribute: folding stability dG
Provide the reading as a plain figure in kcal/mol.

[
  {
    "Sequence entry": "EIHIRANGEEQARKVYKMLAKRNYDVKIEQHNGQWVVTAS [T6A]",
    "folding stability dG, kcal/mol": 1.73
  }
]

Record request: folding stability dG value, item EIHIRTNVEEQARKVYKMLAKRNYDVKIEQHNGQWVVTAS [G8V]
2.06

And the next one, EIHIRTNGEEQARKFYKMLAKRNYDVKIEQHNGQWVVTAS [V15F] ?
1.93

And the next one, EIHIRTNGEEQARKVYKMLAKRNYDVKIEQHNGQWVVTDS [A39D] ?
0.179

And the next one, EIHIRTNGEEQARKVYKMLAKRNYDVKIEQSNGQWVVTAS [H31S] ?
1.78

Cited source for all entries: the MegaScale stability set (Tsuboyama et al. 2023)
